Test system: thyroid hormone sulfotransferase activity in pooled human liver cytosol
Method notes: Inhibition of 3,3′-T2 sulfotransferase activity
Assay context: read-out: IC50 (nM) (95% CI) for the inhibition of 3,3′-T2S formation; 1 μM 3,3′-T2, 0.25 mg protein/ml pooled human liver cytosol, 50 μM PAPS, 30 min, 37°C
Measurement label: log10 IC50 (log10 of the value in nM)
// units: nM (pre-log); metric: IC50; scale: log10

// query I am curious: what log10 IC50 value has been reported for Oc1ccc(C(c2ccc(O)cc2)(C(F)(F)F)C(F)(F)F)cc1 [BPA-AF, 4,4′-(hexafluoroisopropylidene)diphenol] ?
// result 3.93

// query Input Oc1cc(Br)c(Oc2cc(Br)c(Br)cc2Br)cc1Br [4′-OH BDE 101, 4′-OH 2,2′,4,5, 5′-pentaBDE]
// result 2.81

// query Input CC(C)(c1cc(Br)c(O)c(Br)c1)c1cc(Br)c(O)c(Br)c1 [TBBPA, tetrabromobisphenol A]
// result 2.66

// query Input Oc1c(Br)c(Br)c(Oc2c(Br)cc(Br)c(Br)c2Br)c(Br)c1Br [4′-OH BDE 201, 4′-OH 2,2′,3,3′,4,5′,6,6′-octaBDE]
// result 2.71

// query Input Oc1c(F)cc(F)cc1F [2,4,6-TFP, 2,4,6-trifluorophenol]
// result 0.66

Entry source: paper PMC3836566
